Experiment: Toxicity liver stage against HepG2, at 10uM
Type: cell-based
Parameters: test concentration 10 uM, cell line HepG2-A16-CD81EGFP
Settings: human, HepG2-A16-CD81EGFP cells; read-out: INHIBITION
Measurement type: cytotoxicity at 10 µM

Worked cases, answers included:
> print(dat)
                                   compound  recorded.value
1  Cc1ccc(N(CCC#N)C(=O)CN2CCCC2c2ccsc2)cc1 (centres undefined)          -9.01%
2  Cc1c(C(C)NC2CSCCSC2)cnn1-c1ccc(F)cc1F (centres undefined)          -11.1%
3  CN1CC(Oc2ccc(Cl)cc2)=NC(SCC(=O)Nc2ccccc2)=N1         -0.943%
4  CN(C)C(=O)c1cn2cc(-c3cccc(Cl)c3)n(CC3CC3)c(=O)c2n1          -1.62%

Query string: Quick one: cytotoxicity at 10 µM of Cc1oc(-c2ccoc2)nc1CN1CCCCC1CCc1ccccc1 (centres undefined) ?
Result string: -1.48%

###

Assay: Toxicity liver stage against HepG2, at 10uM
Format: cell-based
Design: test concentration 10 uM, cell line HepG2-A16-CD81EGFP
Conditions: human, HepG2-A16-CD81EGFP cells; read-out: INHIBITION
Measured cytotoxicity at 10 µM accompanies every entry in the list below.
Answer in %, number only, no unit symbol.

> print(dat)
                                 molecule  recorded.value
1  CCn1cc(CN2CCCN(C(=O)c3ccccc3OC)CC2)cn1           -11.4

Query string: Quick one: cytotoxicity at 10 µM of Cc1ccc(C(=O)NCC(C)CN2CCCC2=O)c(=O)[nH]1 (stereo not drawn) ?
Result string: -8.57

Query string: Thanks! And `Cc1ccc(C(=O)NCC2(O)CCOCC2)cc1Br` ?
Result string: -1.3

Query string: Thanks! And `CC(C)CS(=O)(=O)N1CCC2(CC1)CCn1c(-c3cnn(C)c3)cnc12` ?
Result string: -131

Query string: Thanks! And `CO[C@H]1CCN(c2nnc(C)s2)C[C@@H]1Cc1cccc(C)c1` ?
Result string: 16.6

Query string: Thanks! And `Cc1cc(CN2CCC(O)(Cn3ccc4ncccc43)CC2)c(C)s1` ?
Result string: -16.1

Query string: Thanks! And `O=C1C[C@H]2[C@@H](CCN2C(=O)Cc2ccccc2)N1Cc1cccnc1` ?
Result string: -3.86

Query string: Thanks! And CCC(C)NS(=O)(=O)Cc1cccc(NC(=O)c2ccc[nH]2)c1 (stereo not drawn) ?
Result string: 15.5

Query string: Thanks! And `COC(=O)CNC(=O)C1CCN(S(C)(=O)=O)CC1` ?
Result string: 2.91

Query string: Thanks! And Cc1nn(C)c(C)c1-c1ccc(=O)n(C(C)C(=O)NC2CCCC2)n1 (stereo not drawn) ?
Result string: 5.97

Query string: Thanks! And `COc1ccc(CN2C[C@@H]3OCCN(CCN(C)C)[C@@H]3C2)cc1` ?
Result string: -86.9

Query string: Thanks! And `CS(=O)(=O)N1CC[C@]2(O)CCN(c3cc(C#N)ccn3)C[C@@H]2C1` ?
Result string: 6.36

Query string: Thanks! And `Cn1cc(C[C@H]2[C@@H](O)CCN2C(=O)c2ccc[nH]2)cn1` ?
Result string: -71.2

Query string: Thanks! And COCc1cccc(CNC(=O)CN2CCCC2c2noc(C)n2)c1 (stereo not drawn) ?
Result string: 0.762

Query string: Thanks! And CCOc1ccc2nc(CN3CCC(CN)C3)ccc2c1 (stereo not drawn) ?
Result string: -7.41

Query string: Thanks! And `O=C(c1ccccc1)N1CC[C@H]2C[C@@H](c3nccs3)O[C@@H]2C1` ?
Result string: -5.44

###

Test: Toxicity liver stage against HepG2, at 10uM
Type: cell-based
Design: test concentration 10 uM, cell line HepG2-A16-CD81EGFP
Settings: human, HepG2-A16-CD81EGFP cells; read-out: INHIBITION
Measurement type: cytotoxicity at 10 µM (%)
Answer in %, number only, no unit symbol.

> print(dat)
                                   compound       measurement.type  recorded.value
1  Cc1ncc(CN(C)C(=O)Nc2ccc(CN3CCOC3=O)cc2)s1  cytotoxicity at 10 µM           -2.97
2  CC(=O)NCC(=O)NCC1(O)CCN(c2cnccn2)C1 (stereo unspecified)  cytotoxicity at 10 µM            7.89

Query string: Quick one: cytotoxicity at 10 µM of `O=C(CSc1ccc2c(c1)OCCO2)NS(=O)(=O)c1ccccc1` ?
Result string: -2.56

Query string: Thanks! And CC(c1nc(C2CC2)no1)N1CCC(NS(=O)(=O)c2cccs2)CC1 (stereo unspecified) ?
Result string: 6.4

###

Measured cytotoxicity at 10 µM accompanies every entry in the list below.
Experiment: Toxicity liver stage against HepG2, at 10uM
Type: cell-based
Parameters: test concentration 10 uM, cell line HepG2-A16-CD81EGFP
Settings: human, HepG2-A16-CD81EGFP cells; read-out: INHIBITION
Answer in %, number only, no unit symbol.

Worked cases, answers included:
> print(dat)
                                   molecule  unit.spec  recorded.value
1  Cc1ccc(CN2CCOC3(COCCN(S(C)(=O)=O)C3)C2)s1 (stereo unspecified)          %            10.8
2  CSc1nccc(N2C[C@H]3CC[C@@H](C2)N(CC2CCC2)C3=O)n1          %            1.88
3  CC(=O)N[C@@H]1CN(C(=O)c2ccncc2)C[C@H]1c1ccc(C)cc1          %            4.58
4  CCC(C)(CC(=O)OC)NCc1nc(C)no1 (stereo unspecified)          %           -5.69
5     CS(=O)(=O)N1CCC(C(=O)NCCNc2ncccn2)CC1          %           -8.11
6  CC(NC(=O)CSCC#N)c1ccc(Cl)cc1 (stereo unspecified)          %           -2.13
7  O=C(c1ccco1)N1CC[C@@H]2O[C@H](COCCN3CCCC3)CC[C@@H]21          %            -100
8  CC(=O)N(C)c1nc(CN2CCOC(Cn3cccn3)C2)cs1 (stereo unspecified)          %           -12.8

Query string: Quick one: cytotoxicity at 10 µM of O=C(CN1CCS(=O)(=O)CC1)NC1CCCc2ccccc21 (stereo unspecified) ?
Result string: -0.82

Query string: Thanks! And COc1cc(N2CCC3(C2)CN(c2cccnc2)C(=O)CN3C)ncn1 (stereo unspecified) ?
Result string: -107

Query string: Thanks! And `CCOc1ccnc(N2CCCN(c3nc(CC)ns3)CC2)n1` ?
Result string: 1.19

###

Experiment: Toxicity liver stage against HepG2, at 10uM
Format: cell-based
Design: test concentration 10 uM, cell line HepG2-A16-CD81EGFP
Conditions: human, HepG2-A16-CD81EGFP cells; read-out: INHIBITION
Measurement type: cytotoxicity at 10 µM (%)
Answer in %, number only, no unit symbol.

> print(dat)
                                   compound       measurement.type  recorded.value
1  COc1ccccc1N1CCN(C(=O)CCn2ccc(C)n2)CC1(C)C  cytotoxicity at 10 µM           -8.64
2  CCCOCC1CCN(C(=O)c2cnc(C)nc2O)C1 (stereo unspecified)  cytotoxicity at 10 µM           -3.15
3    CN(C)Cc1ccc(N2CCN(CCOCC(F)(F)F)CC2)nc1  cytotoxicity at 10 µM            1.25

Query string: Quick one: cytotoxicity at 10 µM of `COCCc1noc(Cn2c(=O)[nH]c3ccccc32)n1` ?
Result string: -2.03

Query string: Thanks! And O=C1CN(C(=O)C2CN(c3cccc(Cl)c3)CCO2)CCN1 (stereo unspecified) ?
Result string: -1.77

Query string: Thanks! And `COCc1cncc2c1CCN(Cc1cccs1)C2` ?
Result string: -0.95

###

Experiment: Toxicity liver stage against HepG2, at 10uM
Format: cell-based
Set-up: test concentration 10 uM, cell line HepG2-A16-CD81EGFP
Details: human, HepG2-A16-CD81EGFP cells; read-out: INHIBITION
Measurement type: cytotoxicity at 10 µM (%)
Answer in %, number only, no unit symbol.

Worked cases, answers included:
> print(dat)
                                   compound  recorded.value
1  CC(Cn1cncn1)NCc1csc2c1CCCC2 (configuration not stated)           -1.53
2  Cc1nc(CC(=O)N2CCN(Cc3ccc(C#N)cc3)CC2)cs1            1.91
3   CC[C@@H]1N(Cc2ccco2)CCC[C@]12CCC(=O)N2C        -0.00736
4         c1ncc(-c2cn(CCSc3cnn[nH]3)nn2)cn1           -41.7
5  Cc1cc(NC(=O)CNC2CCc3ncnn3C2)on1 (configuration not stated)            6.47

Query string: Quick one: cytotoxicity at 10 µM of `CCc1nc(CN2CCc3c(ncn3C3CC3)C2)cs1` ?
Result string: -1.59

Query string: Thanks! And Cc1cc(CN2CCN(S(C)(=O)=O)CC(C(=O)N(C)C)C2)no1 (configuration not stated) ?
Result string: -9.74

Query string: Thanks! And NC(=O)C1CCN(C(=O)NCCOc2ccc3c(c2)OCO3)C1 (configuration not stated) ?
Result string: -13.3
